testProtocol: RSV-A Assay: The description is Japanese.
# EC50 per entry
readoutLabel: EC50

>>> print(df.to_string())
                                   molecule  observedvalue
0  O=C1Nc2ccccc2C(c2ccccc2)=NC1Nc1nnc(-c2cccc(N3CCOCC3)c2)o1 (centres undefined)       > 800 nM
1                  CCOC(=O)c1ncccc1N1CCOCC1       < 400 nM
2  C[C@H]1CN(c2cc(C#N)cnc2-c2nnc(N[C@H]3N=C(c4ccccc4)c4ccccc4NC3=O)o2)CCO1       < 400 nM
3  Cc1ccc(-c2nnc(N[C@H]3N=C(c4ccccc4)c4ccccc4NC3=O)o2)c(N2CCOCC2)n1       < 400 nM
4  O=C1Nc2ccccc2C(c2ccccc2)=N[C@@H]1Nc1nnc(-c2nc(C3CC3)ccc2N2CCOCC2)o1       < 400 nM
5  O=C1Nc2ccccc2C(c2ccccc2)=NC1Nc1nnc(-c2ccc(NC3CCCCC3)cc2)o1 (centres undefined)       > 800 nM
6  CNc1cc(C(F)(F)F)cnc1-c1nnc(N[C@H]2N=C(c3ccccc3)c3ccccc3NC2=O)o1       > 800 nM
7  O=C1Nc2ccccc2C(c2ccccc2)=NC1Nc1nnc(-c2cccnc2)o1 (centres undefined)       > 800 nM

----------
# pEC50 per entry
testProtocol: RSV-A Assay: The description is Japanese.
pEC50: −log10 of the molar value.
readoutLabel: pEC50

>>> df
                                   molecule  readoutlabel  observedvalue
0  O=C1Nc2c(F)cccc2C(c2ccccc2)=N[C@@H]1Nc1nnc(-c2ccccc2N2CCOCC2)o1         pEC50         > 6.40
1  COc1ccc(-c2nnc(N[C@H]3N=C(c4ccccc4)c4ccccc4NC3=O)o2)c(N2CCOCC2)n1         pEC50         > 6.40
2  CO[C@@H](C)CNc1sc(C(F)(F)F)nc1-c1nnc(N[C@H]2N=C(c3ccccc3)c3ccccc3NC2=O)o1         pEC50         > 6.40
3  O=C1Nc2ccccc2C(c2ccccc2)=NC1Nc1ncc(-c2ccc(F)cc2)o1 (centres undefined)         pEC50         < 6.10
4        CCOC(=O)c1nc(C2(O)CCC2)sc1N1CCOCC1         pEC50         > 6.40
5           CCOC(=O)c1cnc(C2CC2)nc1N1CCOCC1         pEC50         > 6.40
6  O=C1Nc2ccccc2C(c2ccccc2)=N[C@H]1Nc1nnc(-c2ccco2)o1         pEC50         < 6.10
7  CC1(Nc2nnc(-c3ccc(F)cc3)o2)N=C(c2ccccc2)c2ccccc2NC1=O (centres undefined)         pEC50         < 6.10
8  N#CC1CN(c2ncccc2-c2nnc(NC3N=C(c4ccccc4)c4ccccc4NC3=O)o2)C1 (centres undefined)         pEC50         < 6.10

----------
testProtocol: RSV-A Assay: The description is Japanese.
# EC50 per entry
readoutLabel: EC50

>>> print(df.to_string())
                                   compound  readoutlabel  observedvalue
0  Cc1nc(-c2nnc(N[C@H]3N=C(c4ccccc4)c4ccccc4NC3=O)o2)c(C2=CCOCC2)s1          EC50       < 400 nM
1  O=C1Nc2ccccc2C(c2ccccc2)=NC1Nc1nnc(CCC(F)(F)F)o1 (centres undefined)          EC50       > 800 nM
2  CCc1nc(N2CCOCC2)c(-c2nnc(N[C@H]3N=C(c4ccccc4)c4ccccc4NC3=O)o2)cc1C#N          EC50       < 400 nM
3  O=C1Nc2ccccc2C(c2ccccc2)=NC1Nc1nnc(-c2cccc(F)c2N2CCOCC2)o1 (centres undefined)          EC50       > 800 nM
4                COCCn1ccc2cccc(C(=O)OC)c21          EC50       > 800 nM
